Data origin: the kinase profiling compilation of Christmann-Franck et al. (2016)

molecular target: UniProtKB P14616; test: radiometric filter-binding kinase assay; conditions: compound 1.0 µM
Sequence (P14616 whole entry, looked up): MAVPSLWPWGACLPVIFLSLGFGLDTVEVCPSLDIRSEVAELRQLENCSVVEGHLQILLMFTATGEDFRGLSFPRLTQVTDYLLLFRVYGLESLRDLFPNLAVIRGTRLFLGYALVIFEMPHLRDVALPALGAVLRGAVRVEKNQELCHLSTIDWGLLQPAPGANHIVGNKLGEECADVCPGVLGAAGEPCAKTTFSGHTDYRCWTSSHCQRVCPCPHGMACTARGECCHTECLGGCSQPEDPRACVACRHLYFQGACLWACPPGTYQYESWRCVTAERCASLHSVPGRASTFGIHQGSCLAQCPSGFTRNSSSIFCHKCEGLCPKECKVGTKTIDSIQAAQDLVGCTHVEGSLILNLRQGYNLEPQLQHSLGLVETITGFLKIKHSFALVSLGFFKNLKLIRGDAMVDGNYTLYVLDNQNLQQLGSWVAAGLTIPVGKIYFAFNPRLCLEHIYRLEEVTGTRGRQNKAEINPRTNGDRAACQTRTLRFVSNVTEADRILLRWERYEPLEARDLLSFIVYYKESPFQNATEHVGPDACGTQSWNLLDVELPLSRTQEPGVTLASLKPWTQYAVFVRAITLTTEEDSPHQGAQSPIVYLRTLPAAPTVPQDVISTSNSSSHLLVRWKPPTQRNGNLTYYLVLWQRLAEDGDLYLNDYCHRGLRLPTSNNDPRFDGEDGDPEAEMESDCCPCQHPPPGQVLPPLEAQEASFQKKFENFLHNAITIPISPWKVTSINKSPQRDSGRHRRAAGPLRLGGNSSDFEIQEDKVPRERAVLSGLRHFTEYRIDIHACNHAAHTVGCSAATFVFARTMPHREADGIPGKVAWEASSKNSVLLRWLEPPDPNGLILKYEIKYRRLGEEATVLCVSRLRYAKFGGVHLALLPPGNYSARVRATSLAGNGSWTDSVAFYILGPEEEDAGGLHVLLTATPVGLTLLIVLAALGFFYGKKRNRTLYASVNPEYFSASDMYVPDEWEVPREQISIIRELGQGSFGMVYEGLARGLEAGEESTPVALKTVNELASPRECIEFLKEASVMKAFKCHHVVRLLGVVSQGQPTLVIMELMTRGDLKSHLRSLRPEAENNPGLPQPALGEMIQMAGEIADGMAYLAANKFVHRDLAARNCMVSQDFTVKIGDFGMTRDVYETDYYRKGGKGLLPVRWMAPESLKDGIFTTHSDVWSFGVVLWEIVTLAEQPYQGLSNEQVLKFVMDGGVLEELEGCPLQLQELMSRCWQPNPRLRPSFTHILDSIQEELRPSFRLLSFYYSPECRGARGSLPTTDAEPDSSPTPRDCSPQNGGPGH
Kindly supply the reported residual activity values for the records listed here.
Give just the numeric value; % need not be written.

Reading of residual activity for CN(C)C/C=C/C(=O)Nc1cccc(C(=O)Nc2ccc(Nc3nccc(-c4cccnc4)n3)cc2)c1 with UniProtKB P14616: 64

Reading of residual activity for CC1=C(CO)C(=O)O[C@@H]([C@@H](C)[C@H]2CC[C@H]3[C@@H]4C[C@H]5O[C@]56[C@@H](O)C=CC(=O)[C@]6(C)C4CC[C@]23C)C1 (some centres not stated) with UniProtKB P14616: 97

Reading of residual activity for CCc1cncnc1N1CCN(Cc2nc3cc(C(F)(F)F)ccc3[nH]2)CC1 with UniProtKB P14616: 96

Reading of residual activity for NS(=O)(=O)OC[C@@H]1C[C@@H](n2ccc3c(N[C@H]4CCc5ccccc54)ncnc32)C[C@@H]1O with UniProtKB P14616: 87

Reading of residual activity for NC1(c2ccc(-c3nc4ccn5c(=O)[nH]nc5c4cc3-c3ccccc3)cc2)CCC1 with UniProtKB P14616: 80

Reading of residual activity for O=C(NCCCNc1nc(Nc2cccc(CN3CCOCC3)c2)ncc1C1CC1)C1CCC1 with UniProtKB P14616: 118

Reading of residual activity for Cc1ccc(=O)n(-c2ccccc2)c1 with UniProtKB P14616: 104

Reading of residual activity for CCn1c(-c2nonc2N)nc2cncc(CNC3CCNCC3)c21 with UniProtKB P14616: 49

Reading of residual activity for O=C(N[C@@H](COc1ccc2[nH]c(=O)[nH]c2c1)c1ccccc1)c1cccn(Cc2ccc(F)c(F)c2)c1=O with UniProtKB P14616: 114

Reading of residual activity for O=C(Nc1nc2cc(C(F)(F)F)cc(NC3CC3)n2n1)c1cccnc1 with UniProtKB P14616: 94

Reading of residual activity for CC(C)(C#N)c1ccc(N2C(=O)OCc3cnc4ccc(-c5cnc6ccccc6c5)cc4c32)cc1 with UniProtKB P14616: 74

Reading of residual activity for CCNc1nc(Nc2cc(F)c(C(=O)N3CCOCC3)cc2OC)ncc1C(F)(F)F with UniProtKB P14616: 90

Reading of residual activity for Oc1ccc2ccccc2c1SSc1c(O)ccc2ccccc12 with UniProtKB P14616: 84

Reading of residual activity for COc1cc(O)c2c(c1)[C@H]1OC1C[C@H](O)[C@H](O)C(=O)/C=C\C[C@H](C)OC2=O (some centres not stated) with UniProtKB P14616: 113

Reading of residual activity for C=C1C(=O)OC2C1CC/C(C)=C/CCC1(C)OC21 (configuration not stated) with UniProtKB P14616: 107

Reading of residual activity for CN1C(=O)[C@@H](Cc2c[nH]c3ccccc23)NC1=S with UniProtKB P14616: 81

Reading of residual activity for Cc1cccc(-c2nn(C(=S)Nc3ccccc3)cc2-c2ccnc3ccccc23)n1 with UniProtKB P14616: 103

Reading of residual activity for C=CC(=O)N1CCC[C@@H](n2nc(-c3ccc(Oc4ccccc4)cc3)c3c(N)ncnc32)C1 with UniProtKB P14616: 101

Reading of residual activity for Cc1cc(SCc2sc(-c3ccc(C(F)(F)F)cc3)nc2C)ccc1OCC(=O)O with UniProtKB P14616: 81

Reading of residual activity for O=C1Nc2nc(-c3c(O)cccc3OCC3CC3)cc(C3CCCNC3)c2CO1 (configuration not stated) with UniProtKB P14616: 78

Reading of residual activity for O=c1c(O)c(-c2ccc(O)c(O)c2)oc2cc(O)c(O)c(O)c12 with UniProtKB P14616: 76

Reading of residual activity for O=C(NOC[C@H](O)CO)c1ccc(F)c(F)c1Nc1ccc(I)cc1Cl with UniProtKB P14616: 106

Reading of residual activity for NC(=O)Nc1ccc2c(c1)/C(=C/c1cc(-c3cccnc3)c[nH]1)C(=O)N2 with UniProtKB P14616: 16

Reading of residual activity for O=C(Nc1ccccc1-c1cn2c(CN3CCNCC3)csc2n1)c1cnc2ccccc2n1 with UniProtKB P14616: 77

Reading of residual activity for NC(=O)c1cc2c(-c3cccc(-c4ccccc4)c3)cnc(N)c2s1 with UniProtKB P14616: 26

Reading of residual activity for O=C(O)c1ccc(-c2c[nH]c3ncc(-c4ccccc4)cc23)cc1C1CCCC1 with UniProtKB P14616: 58

Reading of residual activity for NC(=O)c1cc(-c2ccnc(NC3CCCCC3)c2)nc(N2CCNCC2)c1 with UniProtKB P14616: 107

Reading of residual activity for COc1ccc(N(C(=O)Nc2c(C)cccc2C)c2cc(Nc3ccc(N4CCN(C)CC4)cc3)ncn2)c(OC)c1 with UniProtKB P14616: 107

Reading of residual activity for O=C(NOCC(O)CO)c1ccc(F)c(F)c1Nc1ccc(I)cc1Cl (configuration not stated) with UniProtKB P14616: 84

Reading of residual activity for COc1cc2ncn(-c3cc(OCc4ccccc4S(C)(=O)=O)c(C#N)s3)c2cc1OC with UniProtKB P14616: 77

Reading of residual activity for COc1cc(O)c2c(c1)/C=C/C[C@H](O)[C@H](O)C(=O)/C=C\C[C@H](C)OC2=O with UniProtKB P14616: 96

Reading of residual activity for CNC(=O)C1[C@H]2O[C@@](C)([C@@H]1N)n1c3ccccc3c3c4c(c5c6ccccc6n2c5c31)C(=O)NC4 (some centres not stated) with UniProtKB P14616: 9
